- EXPERIMENTAL_SYSTEM: chymopapain (Carica papaya, UniProt P14080)
- Construct: native mature enzyme from papaya latex, commercial (Sigma C8526), dialysed; monomer; acid-unfolded states in the assay
- Sequence (P14080 135-352): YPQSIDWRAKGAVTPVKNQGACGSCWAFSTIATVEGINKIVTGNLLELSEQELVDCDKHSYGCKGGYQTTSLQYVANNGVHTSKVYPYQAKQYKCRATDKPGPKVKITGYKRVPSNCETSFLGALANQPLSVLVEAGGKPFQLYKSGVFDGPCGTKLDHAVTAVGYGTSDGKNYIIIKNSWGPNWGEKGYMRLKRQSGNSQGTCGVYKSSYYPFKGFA
- METHOD_NOTES: isothermal titration calorimetry (two sets of independent sites)
- EXPERIMENTAL_CONTEXT: read-out: High affinity binding site / K1 (M^-1)
- Source text: isothermal titration calorimetry (two sets of independent sites) on chymopapain
ATTRIBUTE_MEASURED: Kd

Please look up its Kd: O=S(=O)(O)c1cccc2cccc(Nc3ccccc3)c12 [1-anilino-8-naphthalene sulfonate] 2.94 µM
